test: Inhibition of trypsin at 25 uM assessed as Kinact/Ki ratio incubated for 15 mins by spectrofluorometry
Assign inhibition to each entry below.

Observe how each entry below is paired with its result.
CC(C)c1ccc(OP(=O)(Oc2ccc(C(C)C)cc2)C(C)NC(=O)[C@@H]2CCCN2C(=O)[C@@H](NC(=O)OC(C)(C)C)C(C)C)cc1 (mixture of isomers)
< 5%
CSc1ccc(OP(=O)(Oc2ccc(SC)cc2)[C@H](NC(=O)[C@@H]2CCCN2C(=O)[C@@H](NC(=O)OC(C)(C)C)C(C)C)C(C)C)cc1
< 5%

# evaluate next
Let me know recorded inhibition for CSc1ccc(OP(=O)(Oc2ccc(SC)cc2)[C@H](NC(=O)[C@@H]2CCCN2C(=O)[C@@H](NC(=O)Cn2ccc(=O)n(CC(=O)O)c2=O)C(C)C)C(C)C)cc1 , thanks.
< 5%

====

biological target: Pancreatic elastase (Sus scrofa) (UniProt P08419+P00772); assay: Inhibition of porcine pancreatic elastase at 25 uM assessed as Kinact/Ki ratio incubated for 15 mins by spectrofluorometry; type: protein assay
Decision: Ratio compared against 1000 M⁻¹ s⁻¹; not below it gives 1 (yes), below it gives 0 (no).

CC(C)CC(NC(=O)[C@@H]1CCCN1C(=O)[C@@H](NC(=O)OC(C)(C)C)C(C)C)P(=O)(Oc1ccc(Cl)cc1)Oc1ccc(Cl)cc1 (mixture of isomers)
1 (yes)
COc1ccc(C(=O)N[C@H](C(=O)N2CCC[C@H]2C(=O)NC(C(C)C)P(=O)(Oc2ccc(SC)cc2)Oc2ccc(SC)cc2)C(C)C)cc1 (mixture of isomers)
1 (yes)
CSc1ccc(OP(=O)(Oc2ccc(SC)cc2)C(NC(=O)[C@@H]2CCCN2C(=O)[C@@H](C)NC(=O)OC(C)(C)C)C(C)C)cc1 (mixture of isomers)
0 (no)
CSc1ccc(OP(=O)(Oc2ccc(SC)cc2)C(NC(=O)[C@@H]2CCCN2C(=O)[C@H](CC(C)C)NC(=O)OC(C)(C)C)C(C)C)cc1 (mixture of isomers)
1 (yes)
CCCC(NC(=O)[C@@H]1CCCN1C(=O)[C@@H](NC(=O)OC(C)(C)C)C(C)C)P(=O)(Oc1ccc(C(C)(C)C)cc1)Oc1ccc(C(C)(C)C)cc1 (mixture of isomers)
0 (no)
COc1ccc(OP(=O)(Oc2ccc(OC)cc2)C(CC(C)C)NC(=O)[C@@H]2CCCN2C(=O)[C@@H](NC(=O)OC(C)(C)C)C(C)C)cc1 (mixture of isomers)
0 (no)

Would you say CC(C)CC(NC(=O)[C@@H]1CCCN1C(=O)[C@@H](NC(=O)OC(C)(C)C)C(C)C)P(=O)(Oc1ccccc1)Oc1ccccc1 (mixture of isomers) shows Ratio at minimum 1000 M⁻¹ s⁻¹?
1 (yes)

Would you say CSc1ccc(OP(=O)(Oc2ccc(SC)cc2)C(NC(=O)[C@@H]2CCCN2C(=O)[C@H](C)NC(=O)OCc2ccccc2)C(C)C)cc1 (mixture of isomers) shows Ratio at minimum 1000 M⁻¹ s⁻¹?
1 (yes)

====

Assign half-life to each entry below.
assay: Half life in 80% human plasma at […] incubated at 37 degC by HPLC; type: ADME, cell-free
Lab note: write values as number then unit, every time.

Observe how each entry below is paired with its result.
CSc1ccc(OP(=O)(Oc2ccc(SC)cc2)C(NC(=O)[C@@H]2CCCN2C(=O)[C@@H](NC(=O)Cn2ccc(=O)n(CC(=O)O)c2=O)C(C)C)C(C)C)cc1 (mixture of isomers)
4.55 h
CSc1ccc(OP(=O)(Oc2ccc(SC)cc2)C(NC(=O)[C@@H]2CCCN2C(=O)[C@@H](NC(=O)Cn2cc(C)c(=O)n(CC(=O)O)c2=O)C(C)C)C(C)C)cc1 (mixture of isomers)
3.95 h
COc1ccc(C(=O)N[C@H](C(=O)N2CCC[C@H]2C(=O)NC(C(C)C)P(=O)(Oc2ccc(SC)cc2)Oc2ccc(SC)cc2)C(C)C)cc1 (mixture of isomers)
3.8 h
CSc1ccc(OP(=O)(Oc2ccc(SC)cc2)C(NC(=O)[C@@H]2CCCN2C(=O)[C@@H](NC(=O)OC(C)(C)C)C(C)C)C(C)C)cc1 (mixture of isomers)
6.2 h

# evaluate next
Let me know recorded half-life for CSc1ccc(OP(=O)(Oc2ccc(SC)cc2)C(NC(=O)[C@@H]2CCCN2C(=O)[C@@H](NC(=O)COc2ccc(OCC(=O)O)cc2)C(C)C)C(C)C)cc1 (mixture of isomers) , thanks.
8 h

====

Assign inhibition to each entry below.
assay: Inhibition of trypsin at 25 uM assessed as Kinact/Ki ratio incubated for 15 mins by spectrofluorometry

COc1ccc(C(=O)N[C@H](C(=O)N2CCC[C@H]2C(=O)N[C@H](C(C)C)P(=O)(Oc2ccc(SC)cc2)Oc2ccc(SC)cc2)C(C)C)cc1
< 5%
CSc1ccc(OP(=O)(Oc2ccc(SC)cc2)[C@H](NC(=O)[C@@H]2CCCN2C(=O)[C@@H](NC(=O)Cn2cc(C)c(=O)n(CC(=O)O)c2=O)C(C)C)C(C)C)cc1
< 5%

# evaluate next
Let me know recorded inhibition for CCc1ccc(OP(=O)(Oc2ccc(CC)cc2)C(C)NC(=O)[C@@H]2CCCN2C(=O)[C@@H](NC(=O)OC(C)(C)C)C(C)C)cc1 (mixture of isomers) , thanks.
< 5%

====

Assign Ratio to each entry below.
assay: Inhibition of trypsin at 25 uM assessed as Kinact/Ki ratio incubated for 15 mins by spectrofluorometry

Observe how each entry below is paired with its result.
CSc1ccc(OP(=O)(Oc2ccc(SC)cc2)C(CC(C)C)NC(=O)[C@@H]2CCCN2C(=O)[C@@H](NC(=O)OC(C)(C)C)C(C)C)cc1 (mixture of isomers)
280 M⁻¹ s⁻¹
CCCCC(NC(=O)[C@@H]1CCCN1C(=O)[C@@H](NC(=O)OC(C)(C)C)C(C)C)P(=O)(Oc1ccccc1)Oc1ccccc1 (mixture of isomers)
< 50 M⁻¹ s⁻¹
CSc1ccc(OP(=O)(Oc2ccc(SC)cc2)C(NC(=O)[C@@H]2CCCN2C(=O)[C@@H](NC(=O)OCc2ccccc2)C(C)C)C(C)C)cc1 (mixture of isomers)
< 50 M⁻¹ s⁻¹

For every item below, please supply its Ratio.
1. CSc1ccc(OP(=O)(Oc2ccc(SC)cc2)C(NC(=O)[C@@H]2CCCN2C(=O)[C@H](CC(C)C)NC(=O)OC(C)(C)C)C(C)C)cc1 (mixture of isomers)
2. CSc1ccc(OP(=O)(Oc2ccc(SC)cc2)C(NC(=O)[C@@H]2CCCN2C(=O)[C@@H](C)NC(=O)OC(C)(C)C)C(C)C)cc1 (mixture of isomers)
3. CCc1ccc(OP(=O)(Oc2ccc(CC)cc2)C(CC)NC(=O)[C@@H]2CCCN2C(=O)[C@@H](NC(=O)OC(C)(C)C)C(C)C)cc1 (mixture of isomers)

["< 50 M⁻¹ s⁻¹", "< 50 M⁻¹ s⁻¹", "< 50 M⁻¹ s⁻¹"]

====

Assign Ratio to each entry below.
Target: Neutrophil elastase (Homo sapiens)
Sequence (whole entry): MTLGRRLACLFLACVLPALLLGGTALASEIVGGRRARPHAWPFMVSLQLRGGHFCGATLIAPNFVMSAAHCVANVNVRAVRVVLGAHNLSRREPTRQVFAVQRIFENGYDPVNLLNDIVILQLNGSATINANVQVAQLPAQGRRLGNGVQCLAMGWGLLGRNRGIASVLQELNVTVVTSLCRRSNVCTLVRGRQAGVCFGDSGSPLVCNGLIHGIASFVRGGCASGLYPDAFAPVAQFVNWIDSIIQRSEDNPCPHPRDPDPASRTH
Experiment: Inhibition of human leukocyte elastase at 25 uM assessed as Kinact/Ki ratio incubated for 15 mins by spectrofluorometry
Give bare numbers, in M⁻¹ s⁻¹.

Observe how each entry below is paired with its result.
CCCCC(NC(=O)[C@@H]1CCCN1C(=O)[C@@H](NC(=O)OC(C)(C)C)C(C)C)P(=O)(Oc1ccc(SC)cc1)Oc1ccc(SC)cc1 (mixture of isomers)
8100
CSc1ccc(OP(=O)(Oc2ccc(SC)cc2)C(NC(=O)[C@@H]2CCCN2C(=O)[C@H](CC(C)C)NC(=O)OC(C)(C)C)C(C)C)cc1 (mixture of isomers)
128000

# evaluate next
Let me know recorded Ratio for COC(=O)c1cccc(OP(=O)(Oc2cccc(C(=O)OC)c2)C(CC(C)C)NC(=O)[C@@H]2CCCN2C(=O)[C@@H](NC(=O)OC(C)(C)C)C(C)C)c1 (stereo partly drawn) , thanks.
122000

====

species: Homo sapiens; assay: Selectivity ratio of Kinact/Ki ratio for chymotrypsin to Kinact/Ki ratio for human leukocyte elastase
RECORDED METRIC: Ratio
Answers are plain numbers.

For every item below, please supply its Ratio.
1. CSc1ccc(OP(=O)(Oc2ccc(SC)cc2)C(NC(=O)[C@@H]2CCCN2C(=O)[C@@H](NC(=O)Cn2cc(C)c(=O)n(CC(=O)O)c2=O)C(C)C)C(C)C)cc1 (mixture of isomers)
2. CCCC(NC(=O)[C@@H]1CCCN1C(=O)[C@@H](NC(=O)OC(C)(C)C)C(C)C)P(=O)(Oc1ccc(SC)cc1)Oc1ccc(SC)cc1 (mixture of isomers)
3. CSc1ccc(OP(=O)(Oc2ccc(SC)cc2)[C@@H](NC(=O)[C@@H]2CCCN2C(=O)[C@@H](NC(=O)Cn2ccc(=O)n(CC(=O)O)c2=O)C(C)C)C(C)C)cc1
4. CSc1ccc(OP(=O)(Oc2ccc(SC)cc2)C(NC(=O)[C@@H]2CCCN2C(=O)[C@@H](NC(=O)COc2ccc(OCC(=O)O)cc2)C(C)C)C(C)C)cc1 (mixture of isomers)
5. CCCCC(NC(=O)[C@@H]1CCCN1C(=O)[C@@H](NC(=O)OC(C)(C)C)C(C)C)P(=O)(Oc1ccc(SC)cc1)Oc1ccc(SC)cc1 (mixture of isomers)
6. CSc1ccc(OP(=O)(Oc2ccc(SC)cc2)[C@@H](NC(=O)[C@@H]2CCCN2C(=O)[C@@H](NC(=O)COc2ccc(OCC(=O)O)cc2)C(C)C)C(C)C)cc1

42
20
27
245
2
365
